CC50 at 24 h by entry:
assay: Cytotoxic assay (MTT, ISO 10993-5:2009(E)), 24 h treatment; type: cell-based; details: L929 mouse fibroblast cells, L929 mouse fibroblasts, values above highest tested concentration extrapolated

Before answering, review these 4 worked examples.
molecule="COC(=O)C=C1SC(=NN=Cc2ccc(O)cc2)N(c2ccccc2)C1=O [Compound 91]" reportedvalue="493 µM"
molecule="COc1cc(C=NN=C2SC(CC(=O)O)C(=O)N2c2ccc(Cl)cc2)ccc1O (centres unmarked) [Compound 84]" reportedvalue="827 µM"
molecule="CCOc1cc(C=NN=C2SC(CC(=O)O)C(=O)N2c2ccccc2)ccc1O (centres unmarked) [Compound 78]" reportedvalue="≥ 1000 µM"
molecule="O=C1CSC(=NN=Cc2cccc(O)c2)N1c1ccc(F)cc1 [Compound 68]" reportedvalue="180 µM"

Proceed to the following item.
Form field CC50 at 24 h, entry O=C1CSC(=NN=Cc2cccc(O)c2)N1c1cccc(Cl)c1 [Compound 53] : 113 µM

---

test: Cytotoxic assay (MTT, ISO 10993-5:2009(E)), 24 h treatment; format: cell-based; details: L929 mouse fibroblast cells, L929 mouse fibroblasts, values above highest tested concentration extrapolated
measuredEndpoint: CC50 at 24 h (µM)
API: value field is a number in µM; no unit string.

Before answering, review these 2 worked examples.
compound="COC(=O)C=C1SC(=NN=Cc2cccc(O)c2)N(c2ccccc2)C1=O [Compound 90]" measuredendpoint="CC50 at 24 h" reportedvalue=234
compound="O=C(O)CC1SC(=NN=Cc2ccccc2O)N(c2ccccc2)C1=O (centres unmarked) [Compound 74]" measuredendpoint="CC50 at 24 h" reportedvalue=501

Form field CC50 at 24 h, entry COC(=O)C=C1SC(=NN=Cc2ccc(O)cc2)N(c2ccc(Cl)cc2)C1=O [Compound 99] : 230

Form field CC50 at 24 h, entry O=C1CSC(=NN=Cc2cccc(O)c2)N1c1ccccc1 [Compound 42] : 234

---

melting point by entry:

Before answering, review these 3 worked examples.
molecule=O=C1CSC(=NN=Cc2cccc(O)c2)N1c1ccccc1Cl reportedvalue="192 to 194 °C"
molecule=O=C1CSC(=NN=Cc2ccc(O)c(Cl)c2)N1c1ccc(F)cc1 reportedvalue="222 to 224 °C"
molecule=O=C1CSC(=NN=Cc2ccc(O)c(Br)c2)N1c1ccc(F)cc1 reportedvalue="224 to 226 °C"

Form field melting point, entry O=C(O)CC1SC(=NN=Cc2ccccc2O)N(c2ccc(Cl)cc2)C1=O (stereo not shown) : 234 to 236 °C

Form field melting point, entry COc1cc(C=NN=C2SCC(=O)N2c2cccc(Cl)c2)ccc1O : 210 to 212 °C

Form field melting point, entry COc1cc(C=NN=C2SCC(=O)N2c2ccc(F)cc2)ccc1O : 236 to 238 °C

Form field melting point, entry O=C1CSC(=NN=Cc2cccc(O)c2)N1c1ccccc1 : 235 to 236 °C

---

measuredEndpoint: melting point

Before answering, review these 5 worked examples.
molecule="O=C1CSC(=NN=Cc2cccc(O)c2)N1c1ccc(Cl)cc1 [Compound 58]" measuredendpoint="melting point" reportedvalue="230 to 232 °C"
molecule="CCOc1cc(C=NN=C2SC(=CC(=O)OC)C(=O)N2c2ccccc2)ccc1O [Compound 93]" measuredendpoint="melting point" reportedvalue="190 to 192 °C"
molecule="CCOc1cc(C=NN=C2SCC(=O)N2c2ccccc2Cl)ccc1O [Compound 51]" measuredendpoint="melting point" reportedvalue="196 to 198 °C"
molecule="COC(=O)C=C1SC(=NN=Cc2ccc(O)c(Cl)c2)N(c2ccccc2)C1=O [Compound 94]" measuredendpoint="melting point" reportedvalue="238 to 240 °C"
molecule="CCOc1cc(C=NN=C2SCC(=O)N2c2ccccc2)ccc1O [Compound 45]" measuredendpoint="melting point" reportedvalue="229 to 230 °C"

Form field melting point, entry O=C1CSC(=NN=Cc2cccc(O)c2)N1c1cccc(Cl)c1 [Compound 53] : 198 to 200 °C

Form field melting point, entry O=C1CSC(=NN=Cc2ccc(O)c(Br)c2)N1c1ccccc1 [Compound 47] : 216 to 218 °C
